Numbers sourced from patent US20230165864A1.

assay: Bioavailability experiments (pharmacokinetics) in beagle dogs; type: in vivo; conditions: both sexes, dog, plasma; male and female beagle dogs, single intravenous injection 0.1 mg/kg; read-out: plasma clearance rate (CL)
measurement_label: clearance (mL/min/kg)
Give the value, in units of mL/min/kg, as a plain number.

IN: # get_value(readout='clearance', item= COCCOc1cnc2ccc(-c3cnc(OC)c(NS(=O)(=O)c4sc(C)nc4C)c3)cn2c1=O [Compound 11A] )
OUT: 24.6

* * *

assay: Bioavailability experiments (pharmacokinetics) in beagle dogs; type: in vivo; conditions: both sexes, dog, plasma; male and female beagle dogs, single intravenous injection 0.1 mg/kg; read-out: mean plasma elimination phase half-life Tin (converted)
measurement_label: half-life
Report as: number unit

IN: Using the record for COCCOc1cnc2ccc(-c3cnc(OC)c(NS(=O)(=O)c4sc(C)nc4C)c3)cn2c1=O [Compound 11A] , report its half-life.
OUT: 3.21 h

* * *

test: Bioavailability experiments (pharmacokinetics) in beagle dogs; assay type: in vivo; conditions: both sexes, dog, plasma; male and female beagle dogs, single intravenous injection 0.1 mg/kg; read-out: area under the curve AUC0-last
measurement_label: AUC(0-t) (µM·h)
Numbers only; they are read as µM·h.

IN: Can you share its AUC(0-t)? I mean this compound: COCCOc1cnc2ccc(-c3cnc(OC)c(NS(=O)(=O)c4sc(C)nc4C)c3)cn2c1=O [Compound 11A]
OUT: 0.114

* * *

assay: Bioavailability experiments (pharmacokinetics) in beagle dogs; assay type: in vivo; settings: both sexes, dog, plasma; male and female beagle dogs, single intravenous injection 0.1 mg/kg; read-out: apparent volume of distribution (Vdss)
measurement_label: Vd (L/kg)
Dear colleague, please return just the value in L/kg, with no unit written.

IN: // returns reported Vd for input COCCOc1cnc2ccc(-c3cnc(OC)c(NS(=O)(=O)c4sc(C)nc4C)c3)cn2c1=O [Compound 11A]
OUT: 6.16

* * *

assay: Bioavailability experiments (pharmacokinetics) in beagle dogs; assay type: in vivo; details: both sexes, dog, plasma; male and female beagle dogs, single oral administration of tablet containing 0.5 mg of 11A (prescription of embodiment 1); read-out: peak concentration (Cmax)
measurement_label: Cmax (nM)
Report the figure in nM without appending any unit label.

IN: Which Cmax value belongs to COCCOc1cnc2ccc(-c3cnc(OC)c(NS(=O)(=O)c4sc(C)nc4C)c3)cn2c1=O [Compound 11A] ?
OUT: 11.1
